experimental system: UniProt:P15056
parameter measured: IC50 (nM)
Reply numerically in nM, unit not repeated.

The examples below pair each entry with its known result.
{"columns": ["structure as smiles", "IC50, nM"],
 "data": [
  ["O=S(=O)(NCCCNc1nccc(-c2c(-c3cccc(O)c3)nc3sccn23)n1)c1ccc(F)cc1", 4.19],
  ["COc1ccc(S(=O)(=O)NCCNc2nccc(-c3c(-c4ccccc4)nc4sccn34)n2)cc1", 459],
  ["O=S(=O)(NCCNc1nccc(-c2c(-c3cccc(O)c3)nc3sccn23)n1)c1ccc(F)cc1", 5.7]
]}

The record that follows has no IC50 shown yet.
Result for `COc1cccc(-c2nc3sccn3c2-c2ccnc(NCCNS(=O)(=O)c3ccc(C(F)(F)F)cc3)n2)c1` , tested on UniProt:P15056, IC50: 687

---

System: SK-MEL-5
method summary: NCI cancer cell line panel screening (SRB), melanoma cell line SK-MEL-5
Type: cell-based, human
condition context: Homo sapiens, read-out: IC50 against melanoma cell line in vitro
pIC50: −log10 of the molar value.
Decide by pIC50: equal to or exceeding 6 means Yes, less means No.

Answered examples (4):
{"columns": ["compound", "classification"],
 "data": [
  ["CCN1CCN(CCNc2nccc(-c3c(-c4cccc(O)c4)nc4occn34)n2)S1(=O)=O [2II]", "No"],
  ["O=S1(=O)NCCCN1CCNc1nccc(-c2c(-c3cccc(O)c3)nc3occn23)n1 [8II]", "Yes"],
  ["CN1CCCN(CCNc2nccc(-c3c(-c4cccc(O)c4)nc4occn34)n2)S1(=O)=O [6II]", "Yes"],
  ["CC1(C)CN(CCNc2nccc(-c3c(-c4cccc(O)c4)nc4occn34)n2)S(=O)(=O)N1 [5II]", "Yes"]
]}

Switching to the query record.
## Input Given COc1ccc(S(=O)(=O)NCCNc2nccc(-c3c(-c4ccccc4)nc4sccn34)n2)cc1 [2III] , state whether its pIC50 is at least 6.
## Output No

---

Test system: LOX IMVI
method summary: NCI cancer cell line panel screening (SRB), melanoma cell line LOX IMVI
Format: cell-based, human
condition context: read-out: IC50 against melanoma cell line in vitro
The following molecules are shown together with reported IC50 values.
Reply numerically in µM, unit not repeated.

{"columns": ["structure as smiles", "IC50 / µM"],
 "data": [
  ["O=S(=O)(NCCNc1nccc(-c2c(-c3cccc(O)c3)nc3sccn23)n1)c1ccc(F)cc1", 4.11]
]}

The record that follows has no IC50 shown yet.
So, `COc1cccc(-c2nc3sccn3c2-c2ccnc(NCCNS(=O)(=O)c3ccc(C(F)(F)F)cc3)n2)c1` ? Its IC50 was 3.26

---

experimental system: C-RAF (Homo sapiens (Human), UniProt P04049, Y340D/Y341D)
Sequence (P04049 306-648 Y340D/Y341D limits assumed): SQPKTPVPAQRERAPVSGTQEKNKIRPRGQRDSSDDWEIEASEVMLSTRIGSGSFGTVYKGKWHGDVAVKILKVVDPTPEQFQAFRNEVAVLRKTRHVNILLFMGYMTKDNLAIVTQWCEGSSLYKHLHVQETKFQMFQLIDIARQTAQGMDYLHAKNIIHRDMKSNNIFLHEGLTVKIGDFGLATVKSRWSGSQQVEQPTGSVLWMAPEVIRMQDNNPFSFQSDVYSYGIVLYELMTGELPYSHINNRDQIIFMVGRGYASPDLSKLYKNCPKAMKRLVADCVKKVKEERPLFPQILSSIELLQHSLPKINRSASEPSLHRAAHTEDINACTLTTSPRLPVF
method summary: Protein kinase enzymatic activity (Reaction Biology kinase hotspot, 33P-ATP)
condition context: read-out: Inhibitory effect against kinase activity, C-RAF (IC50)
parameter measured: pIC50
Entry type: numeric. Quantity: pIC50, the -log10 of concentration in molar units.

The examples below pair each entry with its known result.
{"columns": ["structure as smiles", "experimental system", "recorded measurement"],
 "data": [
  ["O=S(=O)(NCCCNc1nccc(-c2c(-c3cccc(O)c3)nc3sccn23)n1)c1ccc(F)cc1", "C-RAF (Homo sapiens (Human), UniProt P04049, Y340D/Y341D)", 8.11],
  ["CCN1CCN(CCNc2nccc(-c3c(-c4cccc(O)c4)nc4occn34)n2)S1(=O)=O", "C-RAF (Homo sapiens (Human), UniProt P04049, Y340D/Y341D)", 9.12]
]}

The record that follows has no pIC50 shown yet.
So, `CN1CCN(CCNc2nccc(-c3c(-c4cccc(O)c4)nc4occn34)n2)S1(=O)=O` ? Its pIC50 was 8.53

---

Tested on: LOX IMVI
method summary: NCI cancer cell line panel screening (SRB), melanoma cell line LOX IMVI
Type: cell-based, human
condition context: Homo sapiens, read-out: IC50 against melanoma cell line in vitro
The following compounds are shown together with reported IC50 values.
Reply numerically in nM, unit not repeated.

{"columns": ["structure as smiles", "experimental system", "unit", "IC50"],
 "data": [
  ["CN1CCCN(CCNc2nccc(-c3c(-c4cccc(O)c4)nc4occn34)n2)S1(=O)=O", "LOX IMVI", "nM", 4360],
  ["O=S(=O)(NCCCNc1nccc(-c2c(-c3cccc(O)c3)nc3sccn23)n1)c1ccc(F)cc1", "LOX IMVI", "nM", 560],
  ["CCN1CCN(CCNc2nccc(-c3c(-c4cccc(O)c4)nc4occn34)n2)S1(=O)=O", "LOX IMVI", "nM", 2530],
  ["COc1ccc(S(=O)(=O)NCCNc2nccc(-c3c(-c4ccccc4)nc4sccn34)n2)cc1", "LOX IMVI", "nM", 3940],
  ["CC1(C)CN(CCNc2nccc(-c3c(-c4cccc(O)c4)nc4occn34)n2)S(=O)(=O)N1", "LOX IMVI", "nM", 2300]
]}

The record that follows has no IC50 shown yet.
So, `O=S1(=O)NCCCN1CCNc1nccc(-c2c(-c3cccc(O)c3)nc3occn23)n1` ? Its IC50 was 2150

---

experimental system: V600E-B-RAF (Homo sapiens (Human), UniProt P15056, V600E)
Sequence (P15056 whole entry V600E): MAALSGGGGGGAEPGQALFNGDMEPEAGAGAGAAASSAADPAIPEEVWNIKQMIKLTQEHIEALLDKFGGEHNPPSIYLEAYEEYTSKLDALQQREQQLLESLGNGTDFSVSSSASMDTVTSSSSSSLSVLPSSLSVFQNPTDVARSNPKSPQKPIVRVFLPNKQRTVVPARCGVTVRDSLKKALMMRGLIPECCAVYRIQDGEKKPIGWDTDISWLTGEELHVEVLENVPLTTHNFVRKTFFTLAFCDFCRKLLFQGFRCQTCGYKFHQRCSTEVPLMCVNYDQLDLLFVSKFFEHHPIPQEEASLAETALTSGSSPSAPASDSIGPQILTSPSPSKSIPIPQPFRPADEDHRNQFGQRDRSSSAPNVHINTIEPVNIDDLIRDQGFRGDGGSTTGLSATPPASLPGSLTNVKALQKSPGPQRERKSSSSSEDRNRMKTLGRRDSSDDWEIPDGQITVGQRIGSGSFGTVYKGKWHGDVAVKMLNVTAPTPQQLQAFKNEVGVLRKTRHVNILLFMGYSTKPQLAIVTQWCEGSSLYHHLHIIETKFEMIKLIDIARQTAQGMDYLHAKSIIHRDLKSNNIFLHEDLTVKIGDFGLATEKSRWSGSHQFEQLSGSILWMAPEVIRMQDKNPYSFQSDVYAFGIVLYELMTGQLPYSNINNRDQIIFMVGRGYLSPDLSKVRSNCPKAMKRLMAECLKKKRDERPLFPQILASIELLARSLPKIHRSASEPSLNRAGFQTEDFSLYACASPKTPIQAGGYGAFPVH
method summary: Protein kinase enzymatic activity (Reaction Biology kinase hotspot, 33P-ATP)
condition context: read-out: Inhibitory effect against kinase activity, V600E-B-RAF (IC50)
The following compounds are shown together with reported IC50 values.
Reply numerically in nM, unit not repeated.

The examples below pair each entry with its known result.
{"columns": ["structure as smiles", "recorded measurement"],
 "data": [
  ["COc1ccc(S(=O)(=O)NCCNc2nccc(-c3c(-c4ccccc4)nc4sccn34)n2)cc1", 77],
  ["O=S(=O)(NCCCNc1nccc(-c2c(-c3cccc(O)c3)nc3sccn23)n1)c1ccc(F)cc1", 0.98]
]}

Result for `COc1cccc(-c2nc3sccn3c2-c2ccnc(NCCNS(=O)(=O)c3ccc(C(F)(F)F)cc3)n2)c1` , tested on V600E-B-RAF (Homo sapiens (Human), UniProt P15056, V600E), IC50: 98

Result for `CCN1CCN(CCNc2nccc(-c3c(-c4cccc(O)c4)nc4occn34)n2)S1(=O)=O` , tested on V600E-B-RAF (Homo sapiens (Human), UniProt P15056, V600E), IC50: 0.67

Result for `CN1CCN(CCNc2nccc(-c3c(-c4cccc(O)c4)nc4occn34)n2)S1(=O)=O` , tested on V600E-B-RAF (Homo sapiens (Human), UniProt P15056, V600E), IC50: 1.85

Result for `O=S(=O)(NCCNc1nccc(-c2c(-c3cccc(O)c3)nc3sccn23)n1)c1ccc(F)cc1` , tested on V600E-B-RAF (Homo sapiens (Human), UniProt P15056, V600E), IC50: 1

---

The following compounds are shown together with reported IC50 values.
Tested on: M14
method summary: NCI cancer cell line panel screening (SRB), melanoma cell line M14
Type: cell-based
condition context: Homo sapiens, read-out: IC50 against melanoma cell line in vitro
Reply numerically in nM, unit not repeated.

The examples below pair each entry with its known result.
{"columns": ["structure as smiles", "IC50 / nM"],
 "data": [
  ["CN1CCCN(CCNc2nccc(-c3c(-c4cccc(O)c4)nc4occn34)n2)S1(=O)=O", 160],
  ["COc1ccc(S(=O)(=O)NCCNc2nccc(-c3c(-c4ccccc4)nc4sccn34)n2)cc1", 2770],
  ["CCN1CCN(CCNc2nccc(-c3c(-c4cccc(O)c4)nc4occn34)n2)S1(=O)=O", 140],
  ["O=S(=O)(NCCNc1nccc(-c2c(-c3cccc(O)c3)nc3sccn23)n1)c1ccc(F)cc1", 560],
  ["O=S(=O)(NCCCNc1nccc(-c2c(-c3cccc(O)c3)nc3sccn23)n1)c1ccc(F)cc1", 60],
  ["CC1(C)CN(CCNc2nccc(-c3c(-c4cccc(O)c4)nc4occn34)n2)S(=O)(=O)N1", 320]
]}

The record that follows has no IC50 shown yet.
So, `O=S1(=O)NCCCN1CCNc1nccc(-c2c(-c3cccc(O)c3)nc3occn23)n1` ? Its IC50 was 300

Measured values drawn from patent US10570155B2 for this set.
